# Test system: PPARg homodimer (NR concentration 180 nM)
# TEST NAME: PBM binding z-score (relative to random genomic background probes); higher = stronger binding; sequences stand for … in GC…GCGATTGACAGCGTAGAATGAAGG
Respond with 1 (yes) for PBM binding z-score values of 0.2 and above, 0 (no) for values below.

| MONOMER SEQUENCE | ASSIGNED LABEL |
| --- | --- |
| CCTTACGGGTCACTGACAGGTTATACCATTTGGA | 1 (yes) |
| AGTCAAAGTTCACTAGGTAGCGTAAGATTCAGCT | 1 (yes) |
| TCTTGTAGATCAAGCATGTTAAGAAAGCCTGAGT | 0 (no) |
| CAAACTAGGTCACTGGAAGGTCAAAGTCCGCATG | 1 (yes) |
| TCTTGTAGATCAGGCAGGTTAAGAAAGCCTGAGT | 0 (no) |
| CCTAGTTGGTCTGGAGGTCACACACCGGATATGA | 1 (yes) |
| ACTAATAGTTGACTTAGGGCAACCGATACGACGC | 1 (yes) |
| GGAACGAGCGCAAGTTGATAGCAGAGTTTGATGG | 0 (no) |
| CATACAGTGTCAGCTAGGCCAGAGTAGGGACGGC | 0 (no) |
| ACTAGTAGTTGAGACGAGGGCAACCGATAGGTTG | 0 (no) |
| CAAACTAGGTCACAGAGGTCAAAATCCGTGCGTA | 1 (yes) |
| ATCGAAAGGTCGACGAGGTGAGGATACACCGTTT | 1 (yes) |
| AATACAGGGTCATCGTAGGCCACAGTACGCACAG | 1 (yes) |
| ATCTCTAGGTAAAGTTCAGTCAAAGATCGATAGA | 1 (yes) |
| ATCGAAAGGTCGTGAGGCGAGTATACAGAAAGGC | 1 (yes) |
| AGAATGAGTTTATACGTAGATCAGGGAAGAAAGT | 0 (no) |
| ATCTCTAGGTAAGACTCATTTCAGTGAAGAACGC | 1 (yes) |
| ATCTCTAGGTAAGACTCAGTTTAGTGAAGAACGC | 1 (yes) |
| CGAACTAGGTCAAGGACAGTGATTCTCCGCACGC | 1 (yes) |
| TCTAGTTGGTCACGGAGGTTACACACGACGGGTA | 1 (yes) |
| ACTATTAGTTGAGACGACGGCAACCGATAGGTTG | 0 (no) |
| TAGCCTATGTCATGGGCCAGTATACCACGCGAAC | 0 (no) |
| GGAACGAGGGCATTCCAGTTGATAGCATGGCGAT | 1 (yes) |
| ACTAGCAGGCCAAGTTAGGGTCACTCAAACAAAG | 1 (yes) |
| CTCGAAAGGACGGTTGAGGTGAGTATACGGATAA | 0 (no) |
| TCTATTAGTTGAAGGGCTACCGACGAGTCCGTTT | 1 (yes) |
| TCTAGTTAGTCACGGAGGTCACACACGACGGGTA | 1 (yes) |
| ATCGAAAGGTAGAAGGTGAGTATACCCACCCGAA | 1 (yes) |
| CCTTACGGGTCAAGGTTATTGCACGGGTGGTACG | 1 (yes) |
| CCGACTGGGGCACAGGTTACCATACTCAGTACGA | 1 (yes) |
| ACTAGCAGGCCAAGTGTGGGTCACTCAAACAAAG | 1 (yes) |
| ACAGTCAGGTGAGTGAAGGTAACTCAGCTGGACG | 0 (no) |
| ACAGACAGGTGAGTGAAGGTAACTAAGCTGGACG | 0 (no) |
| CGTCCAAGGTCAGAGAGGTCAGGGAATGCCGAGT | 1 (yes) |
| CCTAGTTGGTCAAGTTCACACACGCTATAGGTAC | 1 (yes) |
| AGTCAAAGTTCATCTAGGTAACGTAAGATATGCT | 1 (yes) |
| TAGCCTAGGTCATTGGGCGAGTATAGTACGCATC | 1 (yes) |
| CGTCAAGGTTCAAGGTAACGTAACAGAAAGCAGC | 1 (yes) |
| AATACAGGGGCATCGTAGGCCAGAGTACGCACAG | 0 (no) |
| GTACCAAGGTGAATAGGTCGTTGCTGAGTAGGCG | 1 (yes) |
| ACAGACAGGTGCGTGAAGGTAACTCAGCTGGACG | 0 (no) |
| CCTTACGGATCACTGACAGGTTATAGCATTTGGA | 1 (yes) |
| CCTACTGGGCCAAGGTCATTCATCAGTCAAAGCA | 1 (yes) |
| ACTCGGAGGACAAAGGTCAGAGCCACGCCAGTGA | 1 (yes) |
| TATACAGTGTCAAAGGCCAGAGTACGAATGTCGA | 1 (yes) |
| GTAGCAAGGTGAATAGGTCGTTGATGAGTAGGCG | 1 (yes) |

----------
# Test system: THRa:RXRa (NR concentration 90 nM, RXRa partner concentration 90 nM)
# TEST NAME: PBM binding z-score (relative to random genomic background probes); higher = stronger binding; sequences stand for … in GC…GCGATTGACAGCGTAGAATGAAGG
Respond with t for PBM binding z-score values of 0.9 and above, f for values below.

| MONOMER SEQUENCE | ASSIGNED LABEL |
| --- | --- |
| CGAACGAGAGCATGAGTTGATAGCAAATGCCGAT | f |
| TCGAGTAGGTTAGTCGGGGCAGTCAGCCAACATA | f |
| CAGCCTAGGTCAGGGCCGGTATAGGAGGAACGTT | t |
| CAAACTAGGTCAAAGGTCCAAGTCGAGCCAACCA | t |

----------
# Tested on: PPARg DBDmut:RXRa IVT, anti-PPARg (DBD mutation: PPARg1 K132A/R137A, NR concentration 270 nM, RXRa partner concentration 90 nM)
# TEST NAME: PBM binding z-score (relative to random genomic background probes); higher = stronger binding; sequences stand for … in GC…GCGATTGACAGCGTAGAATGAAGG
Items are presented alongside their recorded PBM binding z-score.
ASSAY METRIC: PBM binding z-score

| MONOMER SEQUENCE | RESULT |
| --- | --- |
| TAGCCTAGGTCATTCAGGGGCCAGTATTGAAAGC | -0.277 |
| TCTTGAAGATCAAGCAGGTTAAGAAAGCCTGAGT | 0.0587 |
| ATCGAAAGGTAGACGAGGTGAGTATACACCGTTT | 0.703 |
| GGAACTAGGGCATTCGAGTTGATAGCATGGCGAT | 0.246 |
| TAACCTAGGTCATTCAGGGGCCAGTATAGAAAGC | 0.824 |
| CCTCGGAGGACAACAGGAGGTCAGGGCTGCCAGA | -0.962 |
| TCGAGTAGTTTAGGGGCATTCAGAATGGCGTCGA | -0.799 |
| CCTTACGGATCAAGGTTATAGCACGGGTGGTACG | -0.059 |
| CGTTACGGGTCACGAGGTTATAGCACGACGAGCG | 1.39 |
| CCTGGTTGGTCAGGAGGTCACACACCGGATATGA | -0.128 |
| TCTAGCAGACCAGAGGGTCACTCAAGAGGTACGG | -0.965 |
| ACTCTTAGTTGAGACGAGGGCAACCGATAGGTTG | -0.0171 |
| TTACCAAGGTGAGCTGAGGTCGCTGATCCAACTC | -1.62 |
| ACTAGCAGGCCAAGTTTGAGTCACTCAAACAAAG | -0.678 |
| CCGACTGGGGCAAAGGTTACCTTACTCAGTACGA | 0.278 |
| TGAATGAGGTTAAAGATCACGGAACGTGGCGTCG | 0.896 |
| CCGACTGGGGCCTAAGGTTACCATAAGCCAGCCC | -1.22 |
| ATCTCTAGGTAACAAGTTCAGTGACAGAGAGGAC | 1.48 |
| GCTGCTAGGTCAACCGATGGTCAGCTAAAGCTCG | -0.16 |
| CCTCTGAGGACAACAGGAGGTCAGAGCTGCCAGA | -0.185 |
| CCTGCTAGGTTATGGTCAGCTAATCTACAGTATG | -0.113 |
| GCTGCTAGGTCAGGTTGGTCAGCTCACGGGTACG | -0.391 |
| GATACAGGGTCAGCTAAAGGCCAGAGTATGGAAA | 0.576 |
| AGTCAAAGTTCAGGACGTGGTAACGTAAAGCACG | 0.643 |
| CCTAGCAGGGCAGGGTCACTCAAGCATTTCGCTT | -1.54 |
| CCTCGGAGGACTGAAGGTCAGAGCTGTCCGCTTT | -2.59 |
| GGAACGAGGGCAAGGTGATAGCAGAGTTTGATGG | -0.452 |
| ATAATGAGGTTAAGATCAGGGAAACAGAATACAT | 1.83 |
| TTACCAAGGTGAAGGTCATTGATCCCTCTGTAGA | 1.28 |
| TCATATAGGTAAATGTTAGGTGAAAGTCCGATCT | 1.47 |
| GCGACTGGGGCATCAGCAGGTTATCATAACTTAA | -0.424 |
| CCTGTTAGTTGACCATAAGGGCAACCGAAGCTCG | 0.531 |
| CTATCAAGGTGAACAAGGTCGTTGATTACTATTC | 0.759 |
| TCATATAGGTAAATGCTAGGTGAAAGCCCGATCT | 0.828 |
| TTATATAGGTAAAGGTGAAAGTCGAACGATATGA | 3.04 |
| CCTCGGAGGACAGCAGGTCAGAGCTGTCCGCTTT | -1.57 |
| CCTTACGGGTCACTCCAGCTTATAGCATCGGAGT | 0.84 |
| ACTAGCAGGCCAAGGGTCACTCAAGATTAGTCCG | -0.0619 |
| CCTACTGGGCTAAGGTCATTGATCAGTCAAAGCA | -0.43 |
| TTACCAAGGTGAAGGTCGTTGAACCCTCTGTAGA | 0.136 |
| CGAACTAGGTCATTGACAGGACAGAGAATAGTAA | 4.58 |
| CGTACTAGGTCAAGGACAGTGAATCTCCGCACGC | 2.25 |
| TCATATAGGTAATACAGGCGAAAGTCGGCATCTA | 1.28 |
| ATCTCTAGGTAAAGATAGTTCAGTCAATGCAAAT | 0.964 |
